MEASUREMENT NOTES: Metabolic stability in rat liver microsome assessed as parent compound remaining measured at 5 mins in presence of NADPH by LC-MS/MS analysis
Type: ADME
CONDITION SUMMARY: liver microsomes, read-out: Stability
RECORDED METRIC: remaining at 5 min (%)
Only the number, expressed in %, is required.

remaining at 5 min lookup needed for CC(C)(C)[C@H](NC(=O)c1cc2cc(C(F)(F)P(=O)(O)O)ccc2s1)C(=O)N1C[C@@H](OCCCCCC#Cc2cccc3c2CN(C2CCC(=O)NC2=O)C3=O)C[C@H]1C(=O)N1CCO[C@H](c2ccccc2)C1 (stereo partly specified) , thanks. 99
